Answer each item with its documented TGI.
- System: SF-539 CNS
- assay.method.text: NCI tumour cell line growth inhibition, 48 h

Tell me the measured TGI of "Cc1cc(C(=O)CBr)c(CN2C(=O)c3ccccc3C2=O)c(=O)n1C" , please. 34.3 µM

Tell me the measured TGI of "NC(=Nc1ccc(S(=O)(=O)Nc2cnc3ccccc3n2)cc1)/N=C(/N)Nc1ccc(Br)cc1" , please. > 100 µM

Tell me the measured TGI of O=C1/C(=N\O)C2CCC1C2 (stereo not given) , please. > 100 µM

Tell me the measured TGI of CN(C)c1ccc(C2SCC(=O)N2c2nc3cc4sc(N5C(=O)CSC5c5ccc(N(C)C)cc5)nc4cc3s2)cc1 (stereo not given) , please. > 100 µM

Tell me the measured TGI of "CCc1ccccc1NC(=O)C1=C(C)NC(C)=C(C(=O)Nc2ccccc2CC)C1c1cccc([N+](=O)[O-])c1" , please. > 100 µM

Tell me the measured TGI of "CCOc1ccc(Nc2nc(C)c(C(=O)/C=C/c3ccc(Cl)cc3Cl)s2)cc1" , please. 78.8 µM

Tell me the measured TGI of "Nc1nc(N)c(-c2cccc(C(F)(F)F)c2)c(Cc2cccc(C(F)(F)F)c2)n1" , please. 16.6 µM

Tell me the measured TGI of "C[n+]1[se]c2ccccc2c1Cl" , please. 37.1 µM

Tell me the measured TGI of O=C(CC(C(=O)c1ccc(F)cc1)c1ccsc1)c1cccs1 (stereo not given) , please. > 100 µM

Tell me the measured TGI of "O=C(Cc1csc2nc(-c3ccc(Br)cc3)cn12)N/N=C/c1ccccc1" , please. 39.4 µM
